System: IL-8 release in d-U937 cells
protocol.summary: LPS-induced IL-8 release in d-U937 cells
Type: cell-based, human
assay.conditions: Homo sapiens, dU937
observable: pIC50
Schema: pIC50 number; meaning minus log10 of the concentration expressed in molar units.

These recorded examples may help you get a feel for the data.
[[record]]
molecule = "COc1ccc(-n2nc(C(C)(C)C)cc2NC(=O)Nc2ccc(Oc3ccnc(NC(=O)NCCN(C)C)c3)c(Cl)c2Cl)cc1 [Example 13]"
obs_value = 8.89

[[record]]
molecule = "CNC(=O)Nc1cc(Oc2ccc(NC(=O)Nc3cc(C(C)(C)C)nn3-c3ccc(C(=O)O)cc3)c(Cl)c2Cl)ccn1 [Example 60]"
obs_value = 7.63

[[record]]
molecule = "COc1ccc(-n2nc(C(C)(C)C)cc2NC(=O)Nc2ccc(Oc3ccnc(NC(=O)NCCCn4ccnc4)c3)c(Cl)c2Cl)cc1 [Example 69]"
obs_value = 8.38


Consider the record given below.
query: Report pIC50 for CN(C)CCCC(=O)Nc1cc(Oc2ccc(NC(=O)Nc3cc(C(C)(C)C)nn3-c3ccc(CO)cc3)c(Cl)c2Cl)ccn1 [Example 47] please.
result: 8.09
